molecular target: Cyclin-dependent kinase 1/cyclin B (Homo sapiens, UniProt P06493); experiment: Inhibition of [32P]ATP binding to Cyclin dependent kinase 1-cyclin B
Measured Parameter: IC50

{"columns": ["Compound", "Measured Parameter", "Value Observed"],
 "data": [
  ["O=c1ccc2cnc(Nc3ccc(N4CCOCC4)cc3)nc2n1C1CCCC1", "IC50", "0.275 µM"],
  ["Cc1cc(=O)n(C2CCCC2)c2nc(Nc3ccc(N4CCNCC4)cc3)ncc12", "IC50", "> 5 µM"],
  ["O=c1cc(C(F)(F)F)c2cnc(Nc3ccc(N4CCNCC4)cc3)nc2n1C1CCCC1", "IC50", "> 5 µM"],
  ["O=c1ccc2cnc(Nc3ccc(N4CCCCC4)cc3)nc2n1C1CCCC1", "IC50", "0.57 µM"],
  ["Cc1c(Cl)c(=O)n(C2CCCC2)c2nc(Nc3ccc(N4CCNCC4)cc3)ncc12", "IC50", "> 5 µM"],
  ["Cc1c(F)c(=O)n(C2CCCC2)c2nc(Nc3ccc(N4CCNCC4)cc3)ncc12", "IC50", "> 5 µM"],
  ["Cc1cc(=O)n(C2CCCC2)c2nc(Nc3ccc(N4CCC(N)C4)cc3)ncc12 (stereo not given)", "IC50", "> 5 µM"],
  ["Cc1cc(=O)n(CCC(C)C)c2nc(Nc3ccc(N4CCNCC4)cc3)ncc12", "IC50", "> 5 µM"],
  ["Cc1c(I)c(=O)n(C2CCCC2)c2nc(Nc3ccc(N4CCNCC4)cc3)ncc12", "IC50", "1.87 µM"],
  ["O=c1ccc2cnc(Nc3ccc(N4CCC(CCCO)CC4)cc3)nc2n1C1CCCC1", "IC50", "> 5 µM"]
]}

----------
target: Cyclin-dependent kinase 2/cyclin A (Homo sapiens, UniProt P24941+P20248+P78396); test: Inhibition of [32P]ATP binding to Cyclin dependent kinase 2-cyclin A
pIC50: −log10 of the molar value.

{"columns": ["Chemical Smiles", "pIC50"],
 "data": [
  ["Cc1c(Br)c(=O)n(C2CCCC2)c2nc(Nc3ccc(N4CCNCC4)cc3)ncc12", 6.36]
]}

----------
target: Mitogen-activated protein kinase 1 (Homo sapiens); assay: Inhibition of Mitogen activated protein kinase (MAPK2/erk2)
Sequence (P28482 whole entry): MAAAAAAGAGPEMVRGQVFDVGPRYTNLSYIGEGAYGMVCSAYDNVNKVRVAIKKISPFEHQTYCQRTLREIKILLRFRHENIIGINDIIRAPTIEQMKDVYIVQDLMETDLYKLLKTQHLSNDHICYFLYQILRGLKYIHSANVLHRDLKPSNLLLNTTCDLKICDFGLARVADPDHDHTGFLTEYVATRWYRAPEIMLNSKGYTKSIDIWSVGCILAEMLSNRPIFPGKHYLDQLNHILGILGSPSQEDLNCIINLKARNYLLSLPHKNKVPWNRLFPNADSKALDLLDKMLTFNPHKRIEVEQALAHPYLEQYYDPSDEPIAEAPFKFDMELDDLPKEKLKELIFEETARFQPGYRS

{"columns": ["Chemical Smiles", "IC50"],
 "data": [
  ["CC(=O)c1c(C)c2cnc(Nc3ccc(N4CCNCC4)cc3)nc2n(C2CCCC2)c1=O", "> 10 µM"]
]}

----------
assay: Inhibition of 3-phosphoinisitide-dependent protein kinase-1
Measured Parameter: IC50

{"columns": ["Chemical Smiles", "Measured Parameter", "Value Observed"],
 "data": [
  ["CC(=O)c1c(C)c2cnc(Nc3ccc(N4CCNCC4)cc3)nc2n(C2CCCC2)c1=O", "IC50", "> 10 µM"]
]}

----------
target: Cyclin-dependent kinase 4/cyclin D (Homo sapiens); assay: Inhibition of [32P]ATP binding to Cyclin dependant kinase 4-cyclin D
pIC50: −log10 of the molar value.
Label class 1 when pIC50 is at or above 7; anything below gets class 0.

{"columns": ["Compound", "Assigned Class"],
 "data": [
  ["Cc1cc(=O)n(C2CCCC2)c2nc(Nc3ccc(N4CCN(C(=O)OC(C)(C)C)CC4)cc3)ncc12", "class 0"],
  ["Cc1cc(=O)n(C2CCCC2)c2nc(Nc3ccc(N4C[C@@H](C)N[C@@H](C)C4)cc3)ncc12", "class 0"],
  ["Cc1cc(=O)n(C2CCCC2)c2nc(Nc3ccc(N4CCCNCC4)cc3)ncc12", "class 1"],
  ["Cc1cc(=O)n(C2CCCC2)c2nc(Nc3ccc(N4CCN(C)CC4)cc3)ncc12", "class 1"],
  ["O=c1ccc2cnc(Nc3ccc(N4CCOCC4)cc3)nc2n1C1CCCC1", "class 1"],
  ["Cc1cc(=O)n(C2CCCC2)c2nc(Nc3ccc(N4CCNCC4)c(Cl)c3)ncc12", "class 1"],
  ["CCc1cc(=O)n(C2CCCC2)c2nc(Nc3ccc(N4CCNCC4)cc3)ncc12", "class 0"],
  ["Cc1c(C)c2cnc(Nc3ccc(N4CCNCC4)cc3)nc2n(C2CCCC2)c1=O", "class 0"],
  ["O=c1cc(C(F)(F)F)c2cnc(Nc3ccc(N4CCNCC4)cc3)nc2n1C1CCCC1", "class 0"],
  ["Cc1c(I)c(=O)n(C2CCCC2)c2nc(Nc3ccc(N4CCNCC4)cc3)ncc12", "class 1"],
  ["Cc1c(C(=O)O)c(=O)n(C2CCCC2)c2nc(Nc3ccc(N4CCNCC4)cc3)ncc12", "class 1"],
  ["Cc1cc(=O)n(C2CCCC2)c2nc(Nc3ccc(N4CCC(O)C4)cc3)ncc12 (stereo not given)", "class 0"],
  ["CN1CCN(c2ccc(Nc3ncc4ccc(=O)n(C5CCCC5)c4n3)cc2)CC1", "class 1"],
  ["CCc1c(C)c2cnc(Nc3ccc(N4CCNCC4)cc3)nc2n(C2CCCC2)c1=O", "class 1"],
  ["Cc1cc(=O)n(C(C)C)c2nc(Nc3ccc(N4CCNCC4)cc3)ncc12", "class 0"],
  ["Cc1cc(=O)n(C2CCCC2)c2nc(Nc3ccc(N4CCN(CCO)CC4)cc3)ncc12", "class 1"]
]}

Reference source for all entries: ChEMBL document CHEMBL1143565
